Reference source: the SangsterLogP compilation

# Method: method code SF-TN, from DOI: 10.1007/bf00773207
Test readout: logP

- Smiles string: "COc1ccccc1Nc1cc(Cl)ccc1C(=O)O"
  logP: 4.32
- Smiles string: "O=C(O)c1ccccc1Nc1ccc(Cl)cc1"
  logP: 4.24
- Smiles string: "O=C(O)c1ccc(Cl)cc1Nc1cccc(Br)c1"
  logP: 5.16
- Smiles string: "Cc1ccccc1Nc1ccccc1C(=O)O"
  logP: 4.01
- Smiles string: "Cc1cc(C)cc(Nc2cc(Cl)ccc2C(=O)O)c1"
  logP: 5.48
- Smiles string: "O=C(O)c1ccc(Cl)cc1Nc1cccc([N+](=O)[O-])c1"
  logP: 4.05
- Smiles string: "O=C(O)c1ccc(Cl)cc1Nc1ccc(Cl)cc1"
  logP: 4.97
- Smiles string: "COc1ccccc1Nc1ccccc1C(=O)O"
  logP: 3.6
- Smiles string: "O=C(O)c1ccccc1Nc1ccccc1"
  logP: 3.52
- Smiles string: "COc1ccc(Nc2ccccc2C(=O)O)cc1"
  logP: 3.68
- Smiles string: "O=C(O)c1ccccc1Nc1ccccc1Cl"
  logP: 3.94
- Smiles string: "O=C(O)c1ccc(Cl)cc1Nc1cccc(Cl)c1"
  logP: 5
- Smiles string: "O=C(O)c1ccc(Cl)cc1Nc1ccccc1Cl"
  logP: 4.67
- Smiles string: "O=C(O)c1ccc(Cl)cc1Nc1ccccc1"
  logP: 4.25
